- Test system: MAP4K3
- condition notes: concentration: 1 μM, replicates: in singlicate; n = 1;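 further: KINOMEscan kinase panel screen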
measurement label: %Inh

Answered cases to consult:
- molecule: "COC(=O)Nc1nc2ccc(Oc3ccc(NC(=O)Nc4cc(C(F)(F)F)ccc4F)cc3)cc2[nH]1.Cl [GW654607]"
  measured target: "MAP4K3"
  data value: "0%"
- molecule: "Cc1cccc(Nc2nc(NCCN)ncc2C(N)=O)c1 [GSK1292139]"
  measured target: "MAP4K3"
  data value: "32%"
- molecule: "Nc1ncnc2scc(-c3ccc(NC(=O)Cc4cc(F)ccc4F)cc3)c12.O=C(O)C(F)(F)F [SB-731254-M]"
  measured target: "MAP4K3"
  data value: "54%"

Pending molecule:
Find the measured %Inh: item Fc1cc(Cl)ccc1Nc1ccnc2cc(-c3ccc(CN4CCSCC4)o3)ccc12 [GW560106] , target or system MAP4K3.
8%

###

Collected %Inh values appear next to each entry.
- System: PCTK1
- Construct: gene CDK16
- condition notes: concentration: 1 μM, replicates: in singlicate; n = 1
State just the number; it will be interpreted in %.

Answered cases to consult:
- compound: "COc1ccc(C2=C(Nc3cccc(O)c3)C(=O)NC2=O)cc1 [SB-390766]"
  measurement label: "%Inh"
  data value: 5
- compound: "Cl.N#CCc1ccc(Nc2nccc(Nc3ccc(Oc4ccccc4)cc3)n2)cc1 [GW639905]"
  measurement label: "%Inh"
  data value: 0
- compound: "Cl.Cl.NC(CNC(=O)c1cc(Br)c(-c2ccnc3[nH]ccc23)s1)c1ccccc1 (stereo not shown) [GSK1322949]"
  measurement label: "%Inh"
  data value: 21

Pending compound:
Name the reported %Inh value associated with the compound COc1cc(Nc2nccc(N3CCC(NS(=O)(=O)c4ccc(NC(C)=O)cc4)CC3)n2)cc(OC)c1OC [GSK1379825]
14

###

- Test system: SIK2
- condition notes: concentration: 1 μM, replicates: in singlicate; n = 1
measurement label: %Inh (%)
State just the number; it will be interpreted in %.

- molecule: "CC(C)c1nc(-c2ccc(F)c(NS(=O)(=O)c3c(F)cccc3F)c2)c(-c2ccnc(Nc3ccc(N4CCOCC4)nc3)n2)s1"
  unit of measure: "%"
  %Inh: 88
- molecule: "CN(C)c1ncnc2nc[nH]c12"
  unit of measure: "%"
  %Inh: 0

Name the reported %Inh value associated with the molecule Cc1ccc(Nc2ccnc(Nc3ccc(C)c(F)c3)n2)cc1O.Cl
100

Could you do the same for Cc1ccc(-c2ccc3occ(-c4ccc(S(C)=O)cc4)c3c2)nn1 (centres unmarked) , please?
7

Could you do the same for NCCC(NC(=O)c1cc(Br)c(-c2ccnc3[nH]ccc23)s1)c1ccccc1.O=C(O)C(F)(F)F.O=C(O)C(F)(F)F (centres unmarked) , please?
0

Could you do the same for Nc1ncnc2scc(-c3ccc(NC(=O)Cc4cc(F)ccc4F)cc3)c12.O=C(O)C(F)(F)F , please?
11

Could you do the same for O=C(Nc1n[nH]c2nc(-c3cccc(O)c3)ccc12)C1CC1 , please?
0

Could you do the same for COC(=O)Nc1nc2cc(Oc3ccc(NC(=O)Nc4cccc(SC)c4)cc3)ccc2[nH]1.Cl , please?
0

Could you do the same for O=C(O)C(F)(F)F.O=c1[nH]ccc2nc(N[C@@H]3CCNC3)nc(Nc3cc(Cl)cc(Cl)c3)c12 , please?
54

###

- System: EPHA3
- condition notes: concentration: 1 μM, replicates: in singlicate; n = 1
measurement label: %Inh

Answered cases to consult:
- compound: "COc1cc(Nc2nccc(N3CCC(NC(=O)Nc4ccc5c(c4)OCO5)C3)n2)cc(OC)c1OC (stereo not drawn)"
  measured target: "EPHA3"
  %Inh: "0%"
- compound: "Cc1ccccc1CC(=O)N1CCc2cc(-c3cn(C)c4ncnc(N)c34)ccc21"
  measured target: "EPHA3"
  %Inh: "0%"
- compound: "CN(c1ccc(F)c(NC(=O)c2cccc(OC(C)(C)C#N)c2Cl)c1)c1ccc2nc(NC(=O)C3CC3)sc2n1"
  measured target: "EPHA3"
  %Inh: "31%"
- compound: "O=C(Nc1n[nH]c2cc(-c3cccs3)ccc12)C1CC1"
  measured target: "EPHA3"
  %Inh: "13%"
- compound: "Cc1cccc(Nc2nc(NCCN)ncc2C(N)=O)c1"
  measured target: "EPHA3"
  %Inh: "64%"

Name the reported %Inh value associated with the compound Cc1ccc(-c2ccc3occ(-c4ccc(S(C)=O)cc4)c3c2)nn1 (stereo not drawn)
6%

Could you do the same for CCOc1nccc(-c2c(-c3ccc(F)cc3)ncn2C2CCNCC2)n1 , please?
13%

Could you do the same for COc1cccc(CC(=O)N2CCc3cc(-c4cn(C)c5ncnc(N)c45)ccc32)c1 , please?
19%

Could you do the same for CN(C)CCNS(=O)(=O)c1ccc(-c2ccnc3[nH]ccc23)cc1 , please?
0%

Could you do the same for COC(=O)Nc1nc2ccc(Oc3ccc(NC(=O)Nc4cc(C(F)(F)F)ccc4F)cc3)cc2[nH]1.Cl , please?
39%

Could you do the same for Nc1ncc(-c2ccc3nccc(-c4ccncc4)c3c2)cc1S(=O)(=O)N1CCCCC1 , please?
22%

Could you do the same for Cn1cc(-c2ccc3c(c2)CCN3C(=O)Cc2cc(F)cc(F)c2F)c2c(N)ncnc21 , please?
0%

Could you do the same for O=C(Nc1n[nH]c2nc(-c3ccccc3O)ccc12)C1CC1 , please?
30%

Could you do the same for CC(=O)Nc1cn2nc(Oc3cccc(NC(=O)c4cccc(C(F)(F)F)c4)c3)ccc2n1 , please?
65%

Could you do the same for COc1cccc2c(-c3ccncc3)c(-c3ccc(F)cc3)nn12 , please?
0%

Could you do the same for COc1cccc(-c2nc(-c3ccccc3)[nH]c2-c2ccncc2)c1 , please?
0%

Could you do the same for c1ccc(Oc2ccc(Nc3ccnc4cc(-c5ccc(CN6CCCCC6)o5)ccc34)cc2)nc1 , please?
6%

Could you do the same for CN(c1ccc(NC(=O)Nc2cccc(Cl)c2)cc1)c1ccnc(N)n1.Cl , please?
15%

###

- Test system: BIKE
- Construct: gene BMP2K
- condition notes: concentration: 1 μM, replicates: in singlicate; n = 1
measurement label: %Inh (%)
State just the number; it will be interpreted in %.

Answered cases to consult:
- molecular string: "COC(=O)Nc1nc2ccc(Oc3ccc(NC(=O)Nc4cc(C(F)(F)F)ccc4F)cc3)cc2[nH]1.Cl"
  measurement label: "%Inh"
  unit of measure: "%"
  data value: 10
- molecular string: "COC(=O)Nc1nc2ccc(Oc3ccc(CC(=O)Nc4cc(C(F)(F)F)ccc4F)cc3)cc2[nH]1"
  measurement label: "%Inh"
  unit of measure: "%"
  data value: 3
- molecular string: "CN(c1ccc(NC(=O)N2CCN(CCCN3CCOCC3)CC2)cc1)c1ccnc(Nc2ccc(CS(C)(=O)=O)cc2)n1.Cl"
  measurement label: "%Inh"
  unit of measure: "%"
  data value: 86

Pending compound:
Name the reported %Inh value associated with the compound Cc1cc(-c2ccnc(Nc3cccc(C#N)c3)n2)cc(C)c1O
99.5

###

- Test system: CDK4-cyclinD1
- condition notes: concentration: 1 μM, replicates: in singlicate; n = 1
measurement label: %Inh
Just the number plus its unit, please.

- molecular string: "COc1cccc(CC(=O)N2CCc3cc(-c4cn(C)c5ncnc(N)c45)ccc32)c1"
  %Inh: "0%"

Name the reported %Inh value associated with the molecule CCn1cnc2c(NCc3ccccc3)ncnc21
0%

Could you do the same for Nc1ncnc2scc(-c3ccc(NC(=O)Cc4cc(F)ccc4F)cc3)c12.O=C(O)C(F)(F)F , please?
0%

Could you do the same for CNc1nccc(-c2ccc3c(N)n[nH]c3c2)n1 , please?
7%

Could you do the same for CC(=O)Nc1cn2nc(Oc3cccc(NC(=O)c4cccc(C(F)(F)F)c4)c3)ccc2n1 , please?
0%

Could you do the same for Cc1ccc(NC(=O)c2ccnc(N3CCCCC3)c2)cc1-c1ccc(C(=O)NCC2CC2)cc1 , please?
20%

###

Collected %Inh values appear next to each entry.
- Tested on: PLK4
- condition notes: concentration: 1 μM, replicates: in singlicate; n = 1
State just the number; it will be interpreted in %.

Answered cases to consult:
- compound: "Cl.Cl.NCC(NC(=O)c1cc(-c2cccnc2)c(-c2ccnc3[nH]ccc23)s1)c1ccccc1 (centres unmarked)"
  measurement label: "%Inh"
  unit of measure: "%"
  data value: 0
- compound: "CNc1nccc(-c2ccc3c(N)n[nH]c3c2)n1"
  measurement label: "%Inh"
  unit of measure: "%"
  data value: 0
- compound: "Cc1ccccc1CC(=O)N1CCc2cc(-c3cn(C)c4ncnc(N)c34)ccc21"
  measurement label: "%Inh"
  unit of measure: "%"
  data value: 0
- compound: "Cn1cc(-c2cnc(N)c3c(-c4ccc5c(c4)CCN5C(=O)Cc4ccccc4)csc23)cn1"
  measurement label: "%Inh"
  unit of measure: "%"
  data value: 19
- compound: "COc1cccc(-c2nc(-c3ccccc3)[nH]c2-c2ccncc2)c1"
  measurement label: "%Inh"
  unit of measure: "%"
  data value: 0

Name the reported %Inh value associated with the compound Cc1ccc(Nc2ccnc(Nc3ccc(C)c(F)c3)n2)cc1O.Cl
0

Could you do the same for CSc1ccc(NC2=C(c3ccc(Cl)cc3)C(=O)NC2=O)cc1 , please?
30

Could you do the same for Nc1ncnc2scc(-c3ccc(NC(=O)Cc4cc(F)ccc4F)cc3)c12.O=C(O)C(F)(F)F , please?
35

Could you do the same for CC(C)c1nc(-c2cccc(NS(=O)(=O)c3c(F)cccc3F)c2)c(-c2ccnc(Nc3ccc(N4CCOCC4)nc3)n2)s1.Cl , please?
100

Could you do the same for Cl.O=C(Nc1ccc(Oc2ccc3[nH]c(NC(=O)c4ccco4)nc3c2)cc1)Nc1cc(C(F)(F)F)ccc1F , please?
0

Could you do the same for Cc1cc(-c2c(-c3ccc(F)cc3)ncn2CCCN2CCOCC2)nc(N)n1 , please?
15

Could you do the same for c1ccc(Oc2ccc(Nc3ccnc4cc(-c5ccc(CN6CCCCC6)o5)ccc34)cc2)nc1 , please?
44

Could you do the same for CC(C)(C)c1ccc(C(=O)Nc2cn3cc(-n4ccnc4)ccc3n2)cc1 , please?
0

Could you do the same for CN(c1ccc(F)c(NC(=O)c2cccc(OC(C)(C)C#N)c2Cl)c1)c1ccc2nc(NC(=O)C3CC3)sc2n1 , please?
0

Could you do the same for Cn1cc(-c2ccc3c(c2)CCN3C(=O)Cc2cc(F)cc(F)c2F)c2c(N)ncnc21 , please?
0

Could you do the same for Fc1cc(Cl)ccc1Nc1ccnc2cc(-c3ccc(CN4CCSCC4)o3)ccc12 , please?
97.6

Could you do the same for Cc1cccc(Nc2nc(NCCN)ncc2C(N)=O)c1 , please?
10

Could you do the same for COC(=O)Nc1nc2cc(Oc3ccc(NC(=O)Nc4cccc(SC)c4)cc3)ccc2[nH]1.Cl , please?
0

Could you do the same for CCn1c(-c2nonc2N)nc2c(-c3ccccc3)ncc(OCCCN)c21.O=C(O)C(F)(F)F.O=C(O)C(F)(F)F , please?
0

Could you do the same for O=C(O)C(F)(F)F.O=c1[nH]ccc2nc(N[C@@H]3CCNC3)nc(Nc3cc(Cl)cc(Cl)c3)c12 , please?
81
